- studyTarget: T1, integrin αvβ3, purified from human placenta (human, UniProt P06756 31-1048; P05106 27-788)
- T1 construct: mature; Native heterodimer, immobilized on ELISA plates or on the BIAcore chip; biotinylated in capture lift and capture ELISA screens; also called αvβ3 receptor; vitronectin receptor
- T1 sequence (P06756 31-1048, form in doubt, chain 1 of 2): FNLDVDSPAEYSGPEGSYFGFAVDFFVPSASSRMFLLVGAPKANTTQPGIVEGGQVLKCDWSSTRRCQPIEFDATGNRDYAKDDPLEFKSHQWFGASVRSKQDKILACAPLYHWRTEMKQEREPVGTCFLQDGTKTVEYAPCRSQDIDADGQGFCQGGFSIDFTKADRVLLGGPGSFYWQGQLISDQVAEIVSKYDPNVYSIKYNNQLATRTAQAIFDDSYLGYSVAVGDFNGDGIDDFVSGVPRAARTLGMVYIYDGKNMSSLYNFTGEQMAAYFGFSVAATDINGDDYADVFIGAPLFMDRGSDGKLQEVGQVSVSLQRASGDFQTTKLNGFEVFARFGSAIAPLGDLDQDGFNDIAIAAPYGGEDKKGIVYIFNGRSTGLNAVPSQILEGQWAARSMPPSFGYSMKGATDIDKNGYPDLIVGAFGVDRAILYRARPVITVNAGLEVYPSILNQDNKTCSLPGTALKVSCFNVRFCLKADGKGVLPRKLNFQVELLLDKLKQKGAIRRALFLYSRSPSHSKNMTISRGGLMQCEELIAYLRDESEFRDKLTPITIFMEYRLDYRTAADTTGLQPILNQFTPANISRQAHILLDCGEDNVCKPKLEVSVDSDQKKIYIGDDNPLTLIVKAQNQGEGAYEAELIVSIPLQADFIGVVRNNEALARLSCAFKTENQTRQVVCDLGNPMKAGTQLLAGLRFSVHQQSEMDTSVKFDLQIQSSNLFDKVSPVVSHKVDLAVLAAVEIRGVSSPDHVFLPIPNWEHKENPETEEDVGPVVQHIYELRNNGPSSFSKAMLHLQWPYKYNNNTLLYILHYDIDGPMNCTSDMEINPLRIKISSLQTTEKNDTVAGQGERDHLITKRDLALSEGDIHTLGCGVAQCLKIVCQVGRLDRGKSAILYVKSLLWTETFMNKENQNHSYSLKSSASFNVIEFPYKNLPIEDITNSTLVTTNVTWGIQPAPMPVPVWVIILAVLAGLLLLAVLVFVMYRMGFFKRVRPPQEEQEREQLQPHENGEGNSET
- T1 sequence (P05106 27-788, form in doubt, chain 2 of 2): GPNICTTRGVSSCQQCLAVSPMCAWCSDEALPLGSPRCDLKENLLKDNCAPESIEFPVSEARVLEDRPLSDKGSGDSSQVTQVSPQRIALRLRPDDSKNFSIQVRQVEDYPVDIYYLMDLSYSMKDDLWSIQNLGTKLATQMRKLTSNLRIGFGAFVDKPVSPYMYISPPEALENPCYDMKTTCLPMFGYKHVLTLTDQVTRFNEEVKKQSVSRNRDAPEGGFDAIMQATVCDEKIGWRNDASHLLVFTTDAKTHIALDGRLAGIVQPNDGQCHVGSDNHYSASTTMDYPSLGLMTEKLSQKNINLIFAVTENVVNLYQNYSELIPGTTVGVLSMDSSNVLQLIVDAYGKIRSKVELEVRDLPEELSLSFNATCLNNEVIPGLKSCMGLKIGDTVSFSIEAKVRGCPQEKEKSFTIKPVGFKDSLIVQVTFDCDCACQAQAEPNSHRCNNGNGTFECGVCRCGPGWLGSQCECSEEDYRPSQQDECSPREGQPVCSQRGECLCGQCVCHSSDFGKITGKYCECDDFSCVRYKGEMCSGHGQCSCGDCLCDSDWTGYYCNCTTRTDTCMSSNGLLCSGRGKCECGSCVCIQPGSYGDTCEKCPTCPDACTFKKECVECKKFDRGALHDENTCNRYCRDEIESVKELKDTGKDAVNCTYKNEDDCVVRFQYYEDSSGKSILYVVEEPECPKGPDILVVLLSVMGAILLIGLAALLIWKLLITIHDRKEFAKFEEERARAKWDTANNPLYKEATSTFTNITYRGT
- method: SPR (BIAcore), purified Fab over immobilized αvβ3
Readings of koff for the listed binders
# unit: s⁻¹ | format: bare number

These recorded examples may help you get a feel for the data.
[[record]]
binder = "LM609 grafted antibody combinatorial clone 7 (Fab, V domains shown, Fab) VH: QVQLVESGGGVVQPGRSLRLSCAASGFTFSSYDMSWVRQAPGKGLEWVAKVSSGGGSTYYPDTVQGRFTISRDNSKNTLYLQMNSLRAEDTAVYYCARHNHGSFASWGQGTTVTVSS VL: EIVLTQSPATLSLSPGERATLSCQASQSISNFLHWYQQRPGQAPRLLIRYRSQSISGIPARFSGSGSGTDFTLTISSLEPEDFAVYYCQQSGSWPHTFGGGTKVEIK"
observationtype = "koff"
valuemeasured = 0.000236

[[record]]
binder = "LM609 grafted antibody combinatorial clone 6H6 (Fab, V domains shown, Fab) VH: QVQLVESGGGVVQPGRSLRLSCAASGFTFSSYDMSWVRQAPGKGLEWVAKVSSGGGSTYYLDTVQGRFTISRDNSKNTLYLQMNSLRAEDTAVYYCARHNHGSFASWGQGTTVTVSS VL: EIVLTQSPATLSLSPGERATLSCQASQSISNHLHWYQQRPGQAPRLLIRYRSQSISGIPARFSGSGSGTDFTLTISSLEPEDFAVYYCQQSGSWPLTFGGGTKVEIK"
observationtype = "koff"
valuemeasured = 0.000187

[[record]]
binder = "LM609 grafted antibody Fab (Fab, V domains shown, Fab expressed from M13 phage vector, human kappa chain, peptide tag on the carboxyl-terminus of the heavy chain; also called LM609 grafted Fab; parent LM609 grafted antibody) VH: QVQLVESGGGVVQPGRSLRLSCAASGFTFSSYDMSWVRQAPGKGLEWVAKVSSGGGSTYYLDTVQGRFTISRDNSKNTLYLQMNSLRAEDTAVYYCARHNYGSFAYWGQGTTVTVSS VL: EIVLTQSPATLSLSPGERATLSCQASQSISNHLHWYQQRPGQAPRLLIRYRSQSISGIPARFSGSGSGTDFTLTISSLEPEDFAVYYCQQSGSWPHTFGGGTKVEIK"
observationtype = "koff"
valuemeasured = 0.00497


Now take the following binder into account.
input: Can you share its koff? I mean this binder: LM609 grafted antibody combinatorial clone 2G4 (Fab, V domains shown, Fab) VH: QVQLVESGGGVVQPGRSLRLSCAASGFTFSSYDMSWVRQAPGKGLEWVAKVSSGGGSTYYLDTVQGRFTISRDNSKNTLYLQMNSLRAEDTAVYYCARHNYGSFASWGQGTTVTVSS VL: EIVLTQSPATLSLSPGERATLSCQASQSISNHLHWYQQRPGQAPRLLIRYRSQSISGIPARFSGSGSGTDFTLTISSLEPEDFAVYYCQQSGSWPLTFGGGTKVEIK
output: 0.000229

Values from patent US20060204492A1
